- Tested on: HCC1937;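 further: breast cancer cell viability read out with the CCK-8 kit after co-treatment of each compound with the ferroptosis inducer RSL3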
- test.description: relative cell viability, compound + RSL3, vs DMSO (fraction of DMSO control); higher = less growth inhibition
- experimental.setup: 72 h
Counter-ions that a name gives are not always drawn.
# thresholds on relative cell viability define classes: low band = under 0.3, middle band = from 0.3 up to 0.6, high band = 0.6 and over

Answered examples (10):
INPUT: Band assignment needed for O=C(c1c2ccccc2cc2ccccc12)N1CCC(N2CCC[C@@H](C(=O)N3CCOCC3)C2)CC1 + COC(=O)c1ccc([C@H]2c3[nH]c4ccccc4c3C[C@H](C(=O)OC)N2C(=O)CCl)cc1 please.
OUTPUT: middle band

INPUT: Band assignment needed for CN(CCOc1ccc(CC2SC(=O)NC2=O)cc1)c1ccccn1 (configuration not stated) [Rosiglitazone maleate] + COC(=O)c1ccc([C@H]2c3[nH]c4ccccc4c3C[C@H](C(=O)OC)N2C(=O)CCl)cc1 [RSL3] please.
OUTPUT: high band

INPUT: Band assignment needed for Cc1nc2ccc(NCc3cccc(C(F)(F)F)c3)cc2n(CCNC(=O)CO)c1=O + COC(=O)c1ccc([C@H]2c3[nH]c4ccccc4c3C[C@H](C(=O)OC)N2C(=O)CCl)cc1 please.
OUTPUT: middle band

INPUT: Band assignment needed for CCC(=O)Nc1cccc(Oc2nc(Nc3ccc(N4CCN(C)CC4)cc3OC)ncc2Cl)c1 + COC(=O)c1ccc([C@H]2c3[nH]c4ccccc4c3C[C@H](C(=O)OC)N2C(=O)CCl)cc1 please.
OUTPUT: low band

INPUT: Band assignment needed for O=C(OC(C(F)(F)F)C(F)(F)F)N1CCN(Cc2ccc(C(F)(F)F)cc2N2CCCC2)CC1 + COC(=O)c1ccc([C@H]2c3[nH]c4ccccc4c3C[C@H](C(=O)OC)N2C(=O)CCl)cc1 please.
OUTPUT: high band

INPUT: Band assignment needed for CC(C)c1cc(C(C)C)c(CC(=O)NS(=O)(=O)Oc2c(C(C)C)cccc2C(C)C)c(C(C)C)c1 [Avasimibe] + COC(=O)c1ccc([C@H]2c3[nH]c4ccccc4c3C[C@H](C(=O)OC)N2C(=O)CCl)cc1 please.
OUTPUT: middle band

INPUT: Band assignment needed for c1cc(-c2cnn3cc(-c4ccc(OCCN5CCCCC5)cc4)cnc23)ccn1 [Dorsomorphin dihydrochloride] + COC(=O)c1ccc([C@H]2c3[nH]c4ccccc4c3C[C@H](C(=O)OC)N2C(=O)CCl)cc1 [RSL3] please.
OUTPUT: low band

INPUT: Band assignment needed for C[C@H](CCC(=O)O)[C@H]1CC[C@H]2[C@@H]3C[C@H](O)[C@@H]4C[C@H](O)CC[C@]4(C)[C@H]3CC[C@]12C [Hyodeoxycholic acid] + COC(=O)c1ccc([C@H]2c3[nH]c4ccccc4c3C[C@H](C(=O)OC)N2C(=O)CCl)cc1 please.
OUTPUT: high band

INPUT: Band assignment needed for O=C(NN1CCCCC1)c1nn(-c2ccc(Cl)cc2Cl)c(-c2ccc(C#Cc3ccc(C(F)(F)F)cc3)s2)c1CNS(=O)(=O)N1CCCC1 + COC(=O)c1ccc([C@H]2c3[nH]c4ccccc4c3C[C@H](C(=O)OC)N2C(=O)CCl)cc1 please.
OUTPUT: high band

INPUT: Band assignment needed for Nc1ncnc2c1ncn2C1OC(COP(=O)(O)O)C(O)C1O (configuration not stated) [Adenosine 5'-monophosphate monohydrate] + COC(=O)c1ccc([C@H]2c3[nH]c4ccccc4c3C[C@H](C(=O)OC)N2C(=O)CCl)cc1 please.
OUTPUT: high band

More entries:
INPUT: Band assignment needed for O=C(c1ccc(NS(=O)(=O)c2cccc3cccnc23)cc1)N1CCN(CC2CC2)CC1 [Mitapivat] + COC(=O)c1ccc([C@H]2c3[nH]c4ccccc4c3C[C@H](C(=O)OC)N2C(=O)CCl)cc1 please.
OUTPUT: middle band

INPUT: Band assignment needed for O=C(Nc1ccccc1)N1CCN(c2nc(-c3ccccc3)ns2)CC1 + COC(=O)c1ccc([C@H]2c3[nH]c4ccccc4c3C[C@H](C(=O)OC)N2C(=O)CCl)cc1 please.
OUTPUT: low band

INPUT: Band assignment needed for COC(=O)/C=C/c1cccc(N(Cc2ccc(-c3ccc(N(C)C)cc3)cc2)C(=O)C2CCCCC2)c1 [Fexaramine] + COC(=O)c1ccc([C@H]2c3[nH]c4ccccc4c3C[C@H](C(=O)OC)N2C(=O)CCl)cc1 please.
OUTPUT: middle band
